biological target: human TRPM8 (Homo sapiens, UniProt Q7Z2W7); construct: A full-length human TRPM8 gene was amplified from human prostatic tissue total RNA; assay: TRPM8 activating action, fluorescent calcium imaging in HEK293 cell line stably expressing human TRPM8; details: HEK293 cells expressing human TRPM8; Fluo4 calcium imaging at 32° C.; 1 nM to 100 μM; Hill's equation fit
Sequence (Q7Z2W7 whole entry): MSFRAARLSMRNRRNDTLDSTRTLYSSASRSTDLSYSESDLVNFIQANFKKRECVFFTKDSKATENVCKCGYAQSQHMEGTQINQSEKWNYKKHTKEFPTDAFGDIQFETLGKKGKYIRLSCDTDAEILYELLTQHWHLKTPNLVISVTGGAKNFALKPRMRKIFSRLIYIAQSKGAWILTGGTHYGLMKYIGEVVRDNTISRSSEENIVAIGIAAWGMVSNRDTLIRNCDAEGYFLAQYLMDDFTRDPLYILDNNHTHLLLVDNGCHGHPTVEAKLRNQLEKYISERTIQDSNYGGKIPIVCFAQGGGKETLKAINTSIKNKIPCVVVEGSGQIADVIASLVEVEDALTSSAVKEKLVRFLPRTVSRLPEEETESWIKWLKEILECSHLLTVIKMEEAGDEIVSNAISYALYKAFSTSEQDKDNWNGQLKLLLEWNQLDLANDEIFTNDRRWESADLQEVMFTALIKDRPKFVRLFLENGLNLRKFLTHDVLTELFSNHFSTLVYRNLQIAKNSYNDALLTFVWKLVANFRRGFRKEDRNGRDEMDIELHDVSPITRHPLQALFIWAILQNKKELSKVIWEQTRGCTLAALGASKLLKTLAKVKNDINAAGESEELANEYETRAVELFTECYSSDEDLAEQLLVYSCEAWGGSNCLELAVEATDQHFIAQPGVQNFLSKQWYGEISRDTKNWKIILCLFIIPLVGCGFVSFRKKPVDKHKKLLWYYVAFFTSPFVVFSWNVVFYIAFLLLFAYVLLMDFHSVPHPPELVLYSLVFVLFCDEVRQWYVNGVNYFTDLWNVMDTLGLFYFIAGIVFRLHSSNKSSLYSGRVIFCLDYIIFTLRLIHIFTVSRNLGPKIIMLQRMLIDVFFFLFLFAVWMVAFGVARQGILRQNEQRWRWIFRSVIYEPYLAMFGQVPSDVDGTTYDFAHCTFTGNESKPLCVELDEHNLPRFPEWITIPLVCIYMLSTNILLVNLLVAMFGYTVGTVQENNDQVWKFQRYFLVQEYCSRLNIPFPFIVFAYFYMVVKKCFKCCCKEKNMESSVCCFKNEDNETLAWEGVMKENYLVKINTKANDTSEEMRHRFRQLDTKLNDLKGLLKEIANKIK
measurementName: EC50 (nM)

1: C/C=C/c1ccc(OC(C)C(OCC)c2ccc(O)c(OC)c2)c(OC)c1 (centres unmarked) [Mixture (36)]
2: C=CCc1cc(OC)c(OC(C)C(OC(C)C)c2ccc(O)c(OC)c2)c(OC)c1 (centres unmarked) [Mixture (24)]
3: C=CCc1cc(OC)c(OC(C)C(OCCCCCC)c2ccc(O)c(OC)c2)c(OC)c1 (centres unmarked) [Mixture (26)]
4: C=CCc1cc(OC)c(O[C@H](C)[C@H](OCCCC)c2ccc(O)c(OC)c2)c(OC)c1 (relative stereo) [Threo-form (20)]
Ask: Order these molecules (above) by their EC50, from the smallest value upward. Please write the labels in the order that was asked for.
Result: 4, 2, 3, 1
(4: 43 nM, 2: 75 nM, 3: 218 nM, 1: 12200 nM)

P: CCOC(c1ccc(O)c(OC)c1)C(C)Oc1ccccc1OC (centres unmarked) [Mixture (38)]
Q: C=CCc1cc(OC)c(OC(C)C(OCCCCCCCCCC)c2ccc(O)c(OC)c2)c(OC)c1 (centres unmarked) [Mixture (28)]
Ask: Which shows the larger EC50 value: P or Q ? To answer, give the label that identifies your chosen option.
Result: P
